The reported measurements were obtained from paper doi:10.1101/2023.11.08.566240v2.

molecular target: LmxPKAR1-LmxPKAC1 (mNG::PKAC1) (Leishmania mexicana); construct: with protein kinase A catalytic subunit isoform 1; experiment: release of mNG::PKAC1 fluorescence from flagellar cytoskeletons, microscopy; conditions: indirect assay of PKAR1 activation; detergent-extracted cytoskeletons in PEME buffer; 10 nM to 10 µM inosine
Sequence (E9AP50 1-503): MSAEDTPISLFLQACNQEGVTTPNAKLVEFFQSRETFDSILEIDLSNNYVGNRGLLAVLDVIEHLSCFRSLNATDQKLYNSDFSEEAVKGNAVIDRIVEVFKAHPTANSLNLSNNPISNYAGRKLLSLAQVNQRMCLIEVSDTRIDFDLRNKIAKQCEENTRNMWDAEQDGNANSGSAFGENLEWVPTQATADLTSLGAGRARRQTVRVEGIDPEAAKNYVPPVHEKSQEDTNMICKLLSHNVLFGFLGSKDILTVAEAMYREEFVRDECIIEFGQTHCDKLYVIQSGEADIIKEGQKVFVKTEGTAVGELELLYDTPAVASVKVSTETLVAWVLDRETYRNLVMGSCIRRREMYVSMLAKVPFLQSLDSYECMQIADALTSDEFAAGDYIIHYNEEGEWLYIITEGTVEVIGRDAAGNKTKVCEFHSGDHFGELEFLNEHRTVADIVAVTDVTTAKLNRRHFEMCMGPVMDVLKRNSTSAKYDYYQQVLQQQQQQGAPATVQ
Sequence (E9B6S9 1-371 partner): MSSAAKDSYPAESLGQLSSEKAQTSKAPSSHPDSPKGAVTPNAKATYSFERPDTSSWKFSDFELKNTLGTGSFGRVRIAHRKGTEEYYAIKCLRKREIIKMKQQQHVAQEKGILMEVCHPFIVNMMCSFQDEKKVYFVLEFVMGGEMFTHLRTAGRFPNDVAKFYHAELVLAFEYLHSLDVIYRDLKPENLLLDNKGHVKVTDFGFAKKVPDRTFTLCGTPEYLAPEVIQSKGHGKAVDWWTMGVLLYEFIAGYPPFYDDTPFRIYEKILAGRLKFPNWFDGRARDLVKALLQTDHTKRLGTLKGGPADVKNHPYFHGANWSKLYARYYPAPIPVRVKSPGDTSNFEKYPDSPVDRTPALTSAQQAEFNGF
Readout: EC50

Problem: Quick check: EC50 of OC[C@H]1O[C@@H](n2cnc3c(O)ncnc32)[C@H](O)[C@@H]1O ?
Solution: ~9 nM
